target: TNFα (Homo sapiens (Human))
Sequence (P01375 77-233): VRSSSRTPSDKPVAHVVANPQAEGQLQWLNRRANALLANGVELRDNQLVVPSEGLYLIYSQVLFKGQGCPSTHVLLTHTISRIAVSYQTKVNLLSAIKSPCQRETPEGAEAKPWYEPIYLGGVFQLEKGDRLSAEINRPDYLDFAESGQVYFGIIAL
assayExplanation: TNF induced HEK-Blue assay
conditionContext: TNFα 0.5 ng/ml; HEK-Blue-CD40L cells, NF-κB-driven secreted alkaline phosphatase reporter; 18 h
pIC50: −log10 of the molar value.
readoutName: pIC50

Sample records with pIC50:
CC(C)(O)c1ccc(-c2ccc3nc4n(c3n2)C(c2ccccc2OC(F)(F)F)CC4F)cc1 (single isomer, unassigned) [Example 22 (e1)]: > 6.00
CC(C)(O)c1ncc(-c2ccc3nc4n(c3n2)C(c2ccccc2OC(F)F)CC4O)cn1 (stereo not shown) [Example 11 (e4)]: 5.00 to 6.00
CC(C)(O)c1ccc(-c2ccc3nc4n(c3n2)C(c2cc(F)ccc2C(F)(F)F)CC4F)cc1 (stereo not shown) [Example 24 (e3)]: 5.00 to 6.00

Please find the next compound below.
input: Return pIC50 for the following compound: CC(C)(O)c1ccc(-c2ccc3nc4n(c3n2)C(c2cc(F)ccc2C(F)(F)F)CC4)cc1 (single isomer, unassigned) [Example 34 (e1)]
output: > 6.00
